This section lists IC50 readings for UniProt P14902.
A number alone suffices; assume µM.

CCCCC(CC)CNC(=O)C(Cc1ccccc1)NC1=C/C(=N/O)c2ccccc2C1=O (stereo not drawn): 3.45
O=C1C(NC(Cc2ccccc2)C(=O)NCCc2ccccc2)=C/C(=N/O)c2ccccc21 (stereo not drawn): 8.22

# evaluate next
Challenge: Field: IC50 (UniProt P14902). Entry: CCCNC(=O)C(Cc1ccccc1)NC1=C/C(=N/O)c2ccccc2C1=O (stereo not drawn)
Response given: 0.06

* * *

Target or system: human IDO1 (Homo sapiens, UniProt P14902)
Sequence (P14902 whole entry): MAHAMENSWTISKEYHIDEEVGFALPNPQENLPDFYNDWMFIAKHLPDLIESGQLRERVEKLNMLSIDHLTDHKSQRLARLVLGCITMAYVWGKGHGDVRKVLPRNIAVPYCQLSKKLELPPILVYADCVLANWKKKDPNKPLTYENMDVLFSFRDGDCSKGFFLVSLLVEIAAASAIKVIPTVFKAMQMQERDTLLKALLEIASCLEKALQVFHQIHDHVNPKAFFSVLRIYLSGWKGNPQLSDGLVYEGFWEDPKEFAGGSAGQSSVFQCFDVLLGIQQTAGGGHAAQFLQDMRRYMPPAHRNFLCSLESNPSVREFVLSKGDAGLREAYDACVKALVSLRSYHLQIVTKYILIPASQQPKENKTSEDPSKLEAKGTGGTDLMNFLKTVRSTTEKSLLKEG
Assay explanation: SPR binding assay (Biacore T200) with IDO1
Condition context: immobilized recombinant IDO1, 0.078-10.0 μM, read-out: KD (equilibrium dissociation constant) with IDO1
Metric name: pKd
Field pKd (float): negative decimal logarithm of the concentration in molar.

Challenge: If you can, please state the reported pKd value of CCCNC(=O)C(Cc1ccccc1)NC1=C/C(=N/O)c2ccccc2C1=O (stereo not shown) .
Response given: 6.80
